Provide the reported EC50 of each item.
Test system: genotype 1b (Con-1) HCV replicon
test: HCV Replicon Luciferase Assay (genotype 1b)
Format: cell-based
measurement-conditions: Hepatitis C virus, 72 h; genotype 1b replicon in Huh-7 cells, Renilla luciferase, 3 days incubation; read-out: EC50 1b (class)

The examples below pair each entry with its known result.
molecule	EC50
C#CC(C)(C)NC(=O)c1cccc(-c2cc3c(C(=O)NC)c(-c4ccc(F)cc4)oc3nc2NCC(F)(F)C(F)(F)F)c1 [Compound 40005]	0.1 to 1 µM
CNC(=O)c1c(-c2ccc(F)cc2)oc2nc(CCC(F)(F)F)c(-c3cccc(C(=O)NC(C)(C)C(=O)OC)c3)cc12 [Compound 20023]	< 0.1 µM
CNC(=O)c1c(-c2ccc(F)cc2)oc2nc(CCC(F)(F)F)c(-c3cccc(C(=O)NCC(F)(F)C(F)(F)F)c3)cc12 [Compound 20022]	< 0.1 µM
CNC(=O)c1c(-c2ccc(F)cc2)oc2nc(Cl)c(-c3cccc(C(=O)NC(CF)(CF)CF)c3)cc12 [Compound 11001]	0.1 to 1 µM
C#CC(C)(C)NC(=O)c1cccc(-c2cc3c(C(=O)NC)c(-c4ccc(F)cc4)oc3nc2NCC(F)(F)F)c1 [Compound 30002]	< 0.1 µM
CCC(NC(=O)c1cccc(-c2cc3c(C(=O)NC)c(-c4ccc(F)cc4)oc3nc2NCC(F)(F)F)c1)C(F)(F)F (stereo not shown) [Compound 30005]	< 0.1 µM

Give measured EC50 for every item shown.
1. CNC(=O)c1c(-c2ccc(F)cc2)oc2nc(NCC(F)(F)F)c(-c3cccc(C(=O)NC(C)(C)C(=O)OC)c3)cc12 [Compound 30009]
2. CC[C@@H](NC(=O)c1cccc(-c2cc3c(C(=O)NC)c(-c4ccc(F)cc4)oc3nc2CCC(F)(F)F)c1)C1CC1 [Compound 20009]
3. CNC(=O)c1c(-c2ccc(F)cc2)oc2nc(CCC(F)(F)F)c(-c3cccc(C(=O)NCC4(COC)CC4)c3)cc12 [Compound 20032]
4. CNC(=O)c1c(-c2ccc(F)cc2)oc2nc(CCC(F)(F)F)c(-c3cccc(C(=O)NC4CCNC4=O)c3)cc12 (stereo not shown) [Compound 20020]
5. CNC(=O)c1c(-c2ccc(F)cc2)oc2nc(NCC(F)(F)C(F)(F)F)c(-c3ccc(OC)c(C(=O)NC(CF)(CF)CF)c3)cc12 [Compound 41003]
6. CNC(=O)c1c(-c2ccc(F)cc2)oc2nc(NCC(F)(F)F)c(-c3cccc(C(=O)NC(C)C(F)(F)F)c3)cc12 (stereo not shown) [Compound 30004]
7. [2H]C([2H])([2H])C(NC(=O)c1cccc(-c2cc3c(C(=O)NC)c(-c4ccc(F)cc4)oc3nc2NCCO)c1)(C([2H])([2H])[2H])C([2H])([2H])[2H] [Compound 42003]

< 0.1 µM
< 0.1 µM
< 0.1 µM
< 0.1 µM
< 0.1 µM
< 0.1 µM
< 0.1 µM
